tested on: OVCAR-3 ovarian; assay: NCI tumour cell line growth inhibition, 48 h
observable: TGI

COc1cc(C(=O)/C=C/c2ccc(OCCSCCCCCCCCCCSCCOc3ccc(/C=C/C(=O)c4cc(OC)c(OC)c(OC)c4)cc3)cc2)cc(OC)c1OC; > 100 µM
NC1=NC2=c3ccccc3=C(c3cnccn3)C2(c2cnccn2)c2ccccc21 (stereo not given); 81.4 µM
c1ccc2c(c1)NCCC(=NC1CCCCC1)N2; > 100 µM

TGI for `Nc1c(C(=O)c2ccc(-c3cccnc3)cc2)cnn1-c1ccc(F)cc1` ?
> 25 µM

TGI for `Nc1ccc2nc3c(nc2c1)C(=O)c1ccccc1-3` ?
> 100 µM

###

tested on: ACHN renal; test: NCI tumour cell line growth inhibition, 48 h
Below, each entry is listed with its recorded TGI.

Consider the reported TGI for these compounds:
CN(C)c1ccc(/C=C/C(=O)[O-])cc1.CN(C)c1ccc(/C=C/C(=O)[O-])cc1.[Cu+2]; > 100 µM
Cc1nc2c(c(=O)[nH]1)S/C(=C(/C#N)c1nc3ccccc3[nH]1)N2c1ccccc1; > 100 µM
Cc1cc(Cl)cc2c(N=Nc3ccc(S(N)(=O)=O)cc3)c(O)[nH]c12; > 25 µM
S=C(NNC1=NCCCCN1)Nc1ccc(Cl)cc1; 90.2 µM
O=[N+]([O-])c1ccc(-c2cc(O)c3nc4ccccc4n3c2)cc1; > 100 µM

Can you look up TGI on ACHN renal for `CC(=O)N(C)c1ccc(N=CN(C)C)cc1` ?
> 100 µM

Can you look up TGI on ACHN renal for `COc1ccc(C(=O)Nc2ncc(Cc3cccc(Cl)c3)s2)cc1OC` ?
> 100 µM

Can you look up TGI on ACHN renal for `CC[C@@H]1ON(C)[C@H]2CN(C)C(=O)[C@@H]12` ?
> 100 µM

Can you look up TGI on ACHN renal for `O=C1CC[C@H](N2C(=O)c3cccc4c(Cc5ccc(CN6CCOCC6)cc5)ccc2c34)C(=O)N1` ?
> 100 µM

Can you look up TGI on ACHN renal for `Cn1c(NNc2ccccc2)cc(=O)[nH]c1=O` ?
> 100 µM

Can you look up TGI on ACHN renal for `CN(C)c1ccc(/C=C/c2ccnc3c(O)cccc23)cc1` ?
> 100 µM

Can you look up TGI on ACHN renal for `NCCCNc1nc2ccccc2c2c(=O)c3cc(F)cc(F)c3sc12` ?
3.06 µM

Can you look up TGI on ACHN renal for Cc1ccc(S(=O)(=O)CN2C(=O)C(c3ccccc3)(c3ccccc3)C23OC(c2ccc(Cl)cc2)=CC3=O)cc1 (stereo unspecified) ?
> 10 µM

Can you look up TGI on ACHN renal for `CCOC(=O)c1ccc(Nc2sc(C(=O)c3ccc(Br)cc3)c(N)c2C#N)cc1` ?
> 100 µM

Can you look up TGI on ACHN renal for `CC(C)(C)c1cc(-c2cc(C(C)(C)C)[nH]n2)n[nH]1` ?
> 100 µM

Can you look up TGI on ACHN renal for `Oc1cc(O)c2ccc(-c3ccc(O)c(O)c3)[o+]c2c1` ?
> 100 µM

Can you look up TGI on ACHN renal for `COc1c(C)cc(O)cc1C=O` ?
> 100 µM

Can you look up TGI on ACHN renal for `O=c1ccn(CC2(CO)CCCC2)c(=O)[nH]1` ?
> 100 µM

Can you look up TGI on ACHN renal for `COC(=O)[C@@H](C)C[C@H](Cc1cn(C)c2ccccc12)NC(=O)c1csc([C@@H](C[C@H](C(C)C)N(C)C(=O)[C@@H](NC(=O)[C@H]2CCCCN2C)C(C)C)OC(C)=O)n1` ?
> 16.7 µM

Can you look up TGI on ACHN renal for `Cn1c2ccccc2n2c3ncccc3c(=NCCCC(=O)O)c(C#N)c12` ?
> 100 µM

Can you look up TGI on ACHN renal for `Nc1ccccc1NC(=O)c1ccc(CNc2nccc(-c3cccnc3)n2)cc1` ?
> 27.8 µM

###

test system: BT-549 breast; test: NCI tumour cell line growth inhibition, 48 h
Below, each entry is listed with its recorded TGI.
I only need the number, in µM, no unit after it.

Consider the reported TGI for these compounds:
C1=NCCN2CCN(CCN=Cc3ccccc3OCc3cccc(n3)COc3ccccc31)CC2; 25.9
COC1=CC(c2ccc[nH]2)=N/C1=C\c1[nH]c(C)c(CC(=O)OCc2ccccc2)c1CCC(=O)OCc1ccccc1; 2.68
CCOc1ccc(N/C(=C(/C(Cl)=C(/Cl)Nc2ccccc2)[N+](=O)[O-])n2nnc3ccccc32)cc1; 28.7

Now consider the entry below.
TGI for `O=[N+]([O-])c1ccc2nc(Cl)n[n+]([O-])c2c1` ?
29.7

###

Below, each entry is listed with its recorded TGI.
test system: SF-295 CNS; test: NCI tumour cell line growth inhibition, 48 h
*1 amine or outer side, *2 acyl side, *3 side chain or, on linkers, in order; H or OH if unused. Where a SMILES comes first, the peptide text is derived from it. [ ]: non-standard residue; d: D form. The star is where a group is joined. ξ: configuration not given here. X27 = O=C([C@H]1CCC[C@H]1N[*:1])[*:2]; ξW = NC(Cc1c[nH]c2ccccc12)C(=O)O; ξF = NC(Cc1ccccc1)C(=O)O; Boc = CC(C)(C)OC(=O)*; ξK = NCCCCC(N)C(=O)O; ξT = CC(O)C(N)C(=O)O; tBu = CC(C)(C)*

Consider the reported TGI for these compounds:
COc1cc(=O)c2c(O)c3c(O)oc(C)cc3c(OC)c2c1; 72.7 µM
CC12OOC(c3ccccc31)c1c2ccc2ccccc12 (centres undefined); 14.3 µM
O=C1/C(=N\O)c2ccccc2S1(=O)=O; > 100 µM
CC(=O)Nc1ccc(NS(=O)(=O)c2ccc3nc(C)n(NS(=O)(=O)c4ccc(NC(C)=O)cc4)c(=O)c3c2)cc1; > 100 µM
CC(OC(C)(C)C)C1NC(=O)C(CCCCNC(=O)OC(C)(C)C)NC(=O)C(Cc2c[nH]c3ccccc23)NC(=O)C(Cc2ccccc2)NC(=O)[C@H]2CCC[C@H]2NC(=O)C(Cc2ccccc2)NC1=O (some centres undefined) (cyclo([X27][ξF][ξW][ξK](Boc)[ξT](tBu)[ξF])); 73.7 µM

TGI for `CN(C)c1ccc(/C=C/c2ccnc3c(O)cccc23)cc1` ?
> 100 µM

TGI for `O=C(c1ccco1)c1nc2cc(C(F)(F)F)ccc2nc1C(F)(F)F` ?
> 100 µM

TGI for `COc1ccc(OC)c(CSc2ccc(OC)c(OC)c2)c1` ?
> 100 µM

TGI for `Cn1c(NNc2ccccc2)cc(=O)[nH]c1=O` ?
> 100 µM

###

system: NCI-H522 lung; assay: NCI tumour cell line growth inhibition, 48 h; in the data active = GI50 below about 0.43 µM; inactive = the rest
Hi! Could you answer with just one of these? active, inactive

Worked examples, 6 compounds total:
O=C1CC[C@H](N2C(=O)c3cccc4c(Cc5ccc(CN6CCOCC6)cc5)ccc2c34)C(=O)N1; inactive
O=C(COc1ccc(/C=C2\COc3ccccc3C2=O)cc1)Nc1nccs1; inactive
CC(C)(C)N1CCC1CN (stereo not given); inactive
C=C(C)[C@@H]1CC[C@]2(COCCC#N)CC[C@]3(C)[C@H](CC[C@@H]4[C@@](C)(CCCNCCC#N)[C@H](C(=C)C)CC[C@]43C)[C@@H]12; inactive
CCC(CC)c1nc(Nc2ccc(C(=O)OC)cc2)c2ccccc2n1; inactive
COc1cc([C@@H]2c3cc4c(c(O)c3C[C@H]3COC(=O)[C@@H]32)OCO4)cc(OC)c1OC; active

Query: recorded result category for `NC1=CC(=O)c2cccnc2C1=O` in this test
inactive

Query: recorded result category for `COc1ccc(C(=O)Nc2ncc(Cc3cccc(Cl)c3)s2)cc1OC` in this test
inactive

Query: recorded result category for `COc1ccc2sc3cccc(NCCN(C)C)c3c(=O)c2c1` in this test
inactive

Query: recorded result category for `CCOC(=O)c1ccc(Nc2sc(C(=O)c3ccc(Br)cc3)c(N)c2C#N)cc1` in this test
inactive

###

system: EKVX NSCLC; assay: NCI tumour cell line growth inhibition, 48 h
observable: TGI

O=C(O)/C=C/C(=O)N1Cc2cc3ccccc3nc2C1; > 100 µM
CC1=NN(c2nc(N)nc(CBr)n2)C(C)(C)C1; 15 µM
O=C(c1ccccc1)c1ccc(N2C(=O)/C(=C/Cc3ccco3)N=C2c2ccccc2)c(N2C(=O)/C(=C/Cc3ccco3)N=C2c2ccccc2)c1; > 100 µM
CN1CCC(COc2cnc(-c3cccc(Cn4nc(-c5cccc(C#N)c5)ccc4=O)c3)nc2)CC1; 40 µM
CCOc1ccc2nc3nc(=O)[nH]c(C)c3c(NCCCN(CC)CC)c2c1; > 100 µM
COC(=O)c1c(C)cccc1C1CN=NC12Cc1ccccc1C2=O (stereo not given); > 100 µM

TGI for `COc1ccc(C(=O)Nc2ncc(Cc3cccc(Cl)c3)s2)cc1OC` ?
> 100 µM

TGI for CC1=Nc2ccccc2NC(c2ccoc2)C1 (stereo not given) ?
> 100 µM

TGI for CCCC(=O)Nc1cc(/C=C/C(=O)N2CC(CCl)c3c2cc(OCc2ccccc2)c2[nH]cc(C)c32)n(C)c1 (stereo not given) ?
0.635 µM

TGI for CCOC(=O)CCC(NC(=O)Cc1ccc(Nc2nc3ccccc3nc2-c2cccs2)cc1)C(=O)OCC (stereo not given) ?
> 100 µM

Provenance of the data: PubChem BioAssay (NCI)
